NF-kB reporter reference
tested on: RAW-Dual (murine macrophage reporter line); experiment: NF-kB reporter (SEAP) activity fold change vs agonist alone; higher = enhanced NF-kB activity; details: modulator concentration 10 µM; agonist: MPLA […]

Compound	Assayed system	NF-kB reporter
CC(C)NNC(=O)c1ccncc1 [Prestw-176]	RAW-Dual (murine macrophage reporter line)	1.02
N=C(N)c1ccc(OCCCCCOc2ccc(C(=N)N)cc2)cc1.O=S(=O)(O)CCO.O=S(=O)(O)CCO	RAW-Dual (murine macrophage reporter line)	0.492
CC(C=CC1=C(C)CCCC1(C)C)=CC=CC(C)=CC(=O)O	RAW-Dual (murine macrophage reporter line)	1.01
Cc1nc(NC(=O)N2CCC[C@H]2C(N)=O)sc1-c1ccnc(C(C)(C)C(F)(F)F)c1	RAW-Dual (murine macrophage reporter line)	1.6
COc1ccc(CNCc2cccc3ccccc23)cc1	RAW-Dual (murine macrophage reporter line)	1.15
CCOc1nc2cccc(C(=O)O)c2n1Cc1ccc(-c2ccccc2-c2nn[nH]n2)cc1	RAW-Dual (murine macrophage reporter line)	0.976

---

IRF reporter reference
test system: RAW-Dual (murine macrophage reporter line); assay: IRF reporter (Lucia luciferase) activity fold change vs agonist alone; higher = enhanced IRF activity; details: modulator concentration 10 µM; agonist: MPLA […]

Compound	IRF reporter
Cc1cccc(C(=O)NC2CCC(F)(F)CC2)c1	0.99
Cc1[nH]c2ccc(Br)cc2c(=O)c1CN1CCOCC1	0.937
CCN(CC)C(=O)Nc1ccc(OCC(O)CNC(C)(C)C)c(C(C)=O)c1 (centres undefined)	1.29
CC(C)(CO)NC(=O)C(c1ccccc1)c1ccccc1	0.896
CC(C)(O)c1ccccc1CC[C@@H](SCC1(CC(=O)O)CC1)c1cccc(/C=C/c2ccc3ccc(Cl)cc3n2)c1	1.41
O=C(Cn1c(C(F)(F)F)nc2ccccc21)c1ccc(OC(F)F)cc1	1.02
CN1CCN(C(=O)C(C)(c2ccccc2)c2ccccc2)CC1	1.08
O=C(O)CCCN1CCC(O[C@@H](c2ccc(Cl)cc2)c2ccccn2)CC1.O=S(=O)(O)c1ccccc1	1.09
CN(C)S(=O)(=O)N1CCC(CNC(=O)NC2CCCC2)CC1	0.874
CC1C(=O)N2CCCc3cc(S(=O)(=O)N4CCN(c5cccc(Cl)c5)CC4)cc1c32 (centres undefined)	1.22
CN1CCN(c2ccc(-c3cccc(NC(=O)c4ccc5ccccc5c4)c3)nn2)CC1	1.85
CC1CCN(c2ccc(-c3ccc(NC(=O)c4ccc5ncsc5c4)cc3)nn2)CC1	1.17
O=C(O)C(=O)O.c1ccc(SCCc2ccncc2)cc1	1.19
COc1c(Cl)ccc(Cl)c1C(=O)NCc1ccccc1	1.33
COCCOC(=O)C1=C(C)NC(C)=C(C(=O)OCC=Cc2ccccc2)C1c1cccc([N+](=O)[O-])c1 (centres undefined)	2.1
O=C(Cc1ccccc1)NC(NC(=S)Nc1ccc(O)cc1)C(Cl)(Cl)Cl (centres undefined)	1.57
COc1ccc2oc(=O)c(-c3csc(NC(=O)C=CC(=O)O)n3)cc2c1	0.844
O=C(NCCCO)C(=O)Nc1ccccc1F	1.46
Cc1nc(-c2ccc(OCC(C)C)c(C#N)c2)sc1C(=O)O	1.06
CCOC(=O)C(CCCOc1c(C)cc(Cl)cc1C)C(=O)OCC	1.22
COc1ccc(NC(=O)CN(c2ccc(F)cc2)S(C)(=O)=O)c(OC)c1	1.35
CCCOc1ccc(CCC(=O)O)cc1	1.05
CC(=O)N(C=Cc1cc[n+](CCCS(=O)(=O)[O-])c2ccccc12)c1ccccc1	1.25
O=C(O[C@H]1C[C@H]2CC3C[C@@H](C1)N2CC3=O)c1c[nH]c2ccccc12	0.912
Cc1ccc(S(=O)(=O)O)cc1.NC(=O)c1cccc2cn(-c3ccc([C@@H]4CCCNC4)cc3)nc12	0.0808
CCN(CC)C(=O)N1CCN(C)CC1	1.28
O=C(NCCN1C(=O)c2ccccc2C1(O)c1ccc(Cl)cc1)Nc1ccccc1 (centres undefined)	0.0497
O=C(c1ccc(F)cc1)C1CCN(CCn2c(=O)[nH]c3ccccc3c2=O)CC1	1.45
N#C[C@@H]1C[C@@H]2C[C@@H]2N1C(=O)[C@@H](N)C12CC3CC(CC(O)(C3)C1)C2.O	0.871
NC(=O)N1CCC(CC(=O)N2CCC([C@H]3c4ncc(Br)cc4CCc4cc(Cl)cc(Br)c43)CC2)CC1	1.2
COc1ccc(OC)c2sc(NC(=O)C(C)C)nc12	0.828
COC(=O)C1=C(C)NC(=O)NC1c1ccc(Cl)c(Cl)c1 (centres undefined)	0.964
CC(C)=CCC/C(C)=C/CC/C(C)=C/CSc1ccccc1C(=O)O	0.721
Cc1ccc(OCCCOc2cccc3cccnc23)c(Br)c1	0.981
CC1(C)CC(=O)C2=C(C1)OC(N)=C(C#N)C21CCCCC1	1.18
CC(C)(C)C1(O)CC(C(F)(F)F)=NN1C(=O)c1cccc([N+](=O)[O-])c1 (centres undefined)	1.01
Cc1occc1C(=O)Nc1ccc([N+](=O)[O-])cc1Cl	0.874
Cc1nnc(NN=Cc2ccc(Cl)c([N+](=O)[O-])c2)[nH]c1=O	1.07
CC(C)Sc1ccc(CC(=O)Nc2cnoc2)cc1	1.1
NC(=S)c1cc2ccc(O)cc2oc1=O	1.05
C=CCn1c(S)nnc1-c1cc(OC)c(OC)c(OC)c1	1.08
Cc1ccc(N2CC(C(=O)NCC3CCCO3)CC2=O)cc1 (centres undefined)	1.17
CCOc1ccc2nc(S(N)(=O)=O)sc2c1	0.953
O=c1[nH]nc(Br)c(=O)[nH]1	1.02
